- tgt: T1, human NPR1 on CHO-K1 cells (human, UniProt P16066 33-1061)
- T1 sequence: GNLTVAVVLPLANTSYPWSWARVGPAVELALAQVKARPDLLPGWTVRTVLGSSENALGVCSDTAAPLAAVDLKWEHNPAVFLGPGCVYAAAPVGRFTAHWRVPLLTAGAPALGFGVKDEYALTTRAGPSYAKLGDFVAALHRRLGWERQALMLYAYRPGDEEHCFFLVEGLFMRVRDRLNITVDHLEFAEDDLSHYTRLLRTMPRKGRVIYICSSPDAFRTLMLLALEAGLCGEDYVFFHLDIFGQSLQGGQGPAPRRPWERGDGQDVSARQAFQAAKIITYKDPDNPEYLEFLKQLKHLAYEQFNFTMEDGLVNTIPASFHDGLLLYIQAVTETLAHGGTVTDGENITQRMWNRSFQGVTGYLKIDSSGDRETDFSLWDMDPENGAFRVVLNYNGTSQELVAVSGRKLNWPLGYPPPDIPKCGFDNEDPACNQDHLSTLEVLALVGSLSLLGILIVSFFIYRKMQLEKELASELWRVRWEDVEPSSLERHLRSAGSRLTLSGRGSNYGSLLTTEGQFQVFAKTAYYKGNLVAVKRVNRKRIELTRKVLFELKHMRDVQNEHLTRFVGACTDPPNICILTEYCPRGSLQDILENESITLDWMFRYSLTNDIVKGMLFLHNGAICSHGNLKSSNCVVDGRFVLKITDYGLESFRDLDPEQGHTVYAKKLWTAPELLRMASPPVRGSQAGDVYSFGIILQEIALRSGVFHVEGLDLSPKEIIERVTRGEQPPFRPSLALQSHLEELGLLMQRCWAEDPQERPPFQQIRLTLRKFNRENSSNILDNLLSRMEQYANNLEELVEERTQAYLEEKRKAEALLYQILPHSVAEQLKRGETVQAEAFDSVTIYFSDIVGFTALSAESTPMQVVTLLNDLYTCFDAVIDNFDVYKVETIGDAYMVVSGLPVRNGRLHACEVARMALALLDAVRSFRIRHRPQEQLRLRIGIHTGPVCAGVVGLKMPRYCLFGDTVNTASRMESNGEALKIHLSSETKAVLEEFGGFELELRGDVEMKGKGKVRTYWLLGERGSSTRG
- test-method-notes: cell-based or functional assay
readout-type: cGMP conc [nM] at 1 µM IgG, +0.075 nM ANP (nM)

{"binder": "YY01 (IgG format) (antibody, V domains shown, also called YY01_LALA) VH: EVQLVESGGGLVQPGGSLRLSCAASGFTFSSYWISWVRQAPGKGLEWVANIKQSGSETYYVESVKGRFTISRDNAKNSLYLQMNSLRAEDTAVYYCARSLRRRSTEHAGFDVWGQGTLVTVSS VL: DIQMTQSPSSLSASVGDRVTITCRASQGISNYLAWYQQKPGKVPKLLIYAASTLQSGVPSRFSGSGSGTDFTLTISSLQPEDVATYYCQQADKFPYTFGQGTKVEIKR", "readout-units": "nM", "result-value": 14}
{"binder": "YY05 (IgG format) (antibody, V domains shown, also called YY05_LALA) VH: EVQLVQSGAEVKKPGESLKISCKGSGYSFTSYWISWVRQMPGKGLEWMGIIYPGTSYTRYSPSFQGQVTISADKSISTAYLQWSSLKASDTAMYYCARGAVAGQLGFDHWGQGTLVTVSS VL: QSVLTQPPSVSGAPGQRVTISCTGSSSNIGAGYDVHWYQQLPGTAPKLLIYGNSNRPSGVPDRFSGSKSGTSASLAITGLQAEDEADYYCQSYYTSSHGPVFGGGTKLTVLG", "readout-units": "nM", "result-value": 15}
{"binder": "YY06 (IgG format) (antibody, V domains shown, also called YY06_LALA) VH: EVQLLESGGGLVQPGGSLRLSCAASGFTFSSYAISWVRQAPGKGLEWVSAISGSGGSTYYAESVKGRFTISRDNSKNTLYLQMNSLRAEDTAVYYCARPYLGDRRSYGFDHWGQGTLVTVSS VL: QSALTQPASVSGSPGQSITISCTGTSSDVGSYNLVSWYQQHPGKAPKLMIYEGSKRPSGVSNRFSGSKSGNTASLTISGLQAEDEADYYCSSYGFHIVVVVFGGGTKLTVLG", "readout-units": "nM", "result-value": 15}
{"binder": "YY07 (IgG format) (antibody, V domains shown, also called YY07_LALA) VH: EVQLVQSGAEVKKPGESLKISCKGSGYSFTSYWISWVRQMPGKGLEWMGIIYPGTSYTRYSPSFQGQVTISADKSISTAYLQWSSLKASDTAMYYCARGSLPGLLGFDHWGQGTLVTVSS VL: QSVLTQPPSVSGAPGQRVTISCTGSSSNIGAGYDVHWYQQLPGTAPKLLIYGNSNRPNGVPDRFSGSKSGTSASLAITGLQAEDEADYYCQSYDSPTSSSVFGGGTKLTVLG", "readout-units": "nM", "result-value": 9}

Where do these numbers come from? They come from patent US20240052042A1.
